B1: Pistol ribozyme (parent)
chain: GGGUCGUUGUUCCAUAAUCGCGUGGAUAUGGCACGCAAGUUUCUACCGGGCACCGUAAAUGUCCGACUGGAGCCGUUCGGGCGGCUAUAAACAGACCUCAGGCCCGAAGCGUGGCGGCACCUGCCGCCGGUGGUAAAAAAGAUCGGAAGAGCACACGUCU

- Variants of: B1
- PROCEDURE TEXT: aptazyme ON/OFF ratio, guanine; higher = stronger switching; co-transcriptional cleavage with and without guanine
PROPERTY NAME: aptazyme ON/OFF ratio
Hey, just send me the number, nothing else.

variant_label="U7A U8G G9C U10A U11A C13U" property_name="aptazyme ON/OFF ratio" endpoint_value=1.26

Short answer for U7A U8A G9C U11C C13G : aptazyme ON/OFF ratio was 1.07

Short answer for U8G U10C U11G C12G : aptazyme ON/OFF ratio was 1.23

Short answer for U8G G9A U11C C12U : aptazyme ON/OFF ratio was 1.07
